CC50 overview
Assay: Cytotoxicity against human HT-29 cells assessed as reduction in cell viability
Format: toxicity, cell-based

The examples below pair each entry with its known result.
[[record]]
smi = "CN1C(=S)[C@@H](NC(=O)c2nc(Cc3ccccc3)n(CCCC#N)n2)COc2ccccc21"
observed_result = "> 100 µM"

[[record]]
smi = "CCn1nc(C(=O)N[C@H]2COc3ccccc3N(C)C2=S)nc1Cc1ccccc1"
observed_result = "> 100 µM"


Now, please, on to the next compound.
Read the entry CN1C(=S)[C@@H](NC(=O)c2nc(Cc3ccccc3)n(C3CCNCC3)n2)COc2ccccc21 and write its reported CC50.
> 100 µM

====

Assay: Cytotoxicity against human HT-29 cells assessed as reduction in cell viability
Type: toxicity, cell-based
quantity.name: CC50

Please review the following examples before continuing.
[[record]]
smi = "Cc1cnc(-n2nc(C(=O)N[C@H]3COc4ccccc4N(C)C3=S)nc2Cc2ccccc2)nc1"
observed_result = "> 100 µM"

[[record]]
smi = "CCCn1nc(C(=O)N[C@H]2COc3ccccc3N(C)C2=S)nc1Cc1ccccc1"
observed_result = "> 100 µM"

[[record]]
smi = "CN1C(=S)[C@@H](NC(=O)c2nc(Cc3ccccc3)n(CC3CCOCC3)n2)COc2ccccc21"
observed_result = "> 100 µM"

[[record]]
smi = "CN1C(=S)[C@@H](NC(=O)c2nc(Cc3ccccc3)n(Cc3ccccc3)n2)COc2ccccc21"
observed_result = "> 100 µM"

[[record]]
smi = "CC(C)CCn1nc(C(=O)N[C@H]2COc3ccccc3N(C)C2=S)nc1Cc1ccccc1"
observed_result = "> 100 µM"

[[record]]
smi = "CN1C(=S)[C@@H](NC(=O)c2n[nH]c(Cc3ccccc3)n2)COc2ccccc21"
observed_result = "> 50 µM"

[[record]]
smi = "CN1C(=O)[C@@H](NC(=O)c2nnc(Cc3ccccc3)[nH]2)COc2ccccc21"
observed_result = "> 50 µM"

[[record]]
smi = "CN1C(=S)[C@@H](NC(=O)c2nc(Cc3ccccc3)n(CCCF)n2)COc2ccccc21"
observed_result = "> 100 µM"


Could you now look at the following compound, please?
Tell me measured CC50 for CN1C(=S)[C@@H](NC(=O)c2nc(Cc3ccccc3)n(C3CCCCCC3)n2)COc2ccccc21 please.
> 100 µM

====

Reported CC50 values for the following molecules.
Experiment: Cytotoxicity against human HT-29 cells assessed as reduction in cell viability
Assay type: toxicity, cell-based

[[record]]
molecule = "CN1C(=S)[C@@H](NC(=O)c2nc(Cc3ccccc3)n(CC(F)F)n2)COc2ccccc21"
observed_result = "> 100 µM"

[[record]]
molecule = "CC(C)n1nc(C(=O)N[C@H]2COc3ccccc3N(C)C2=S)nc1Cc1ccccc1"
observed_result = "> 100 µM"

[[record]]
molecule = "CN1C(=S)[C@@H](NC(=O)c2nc(Cc3ccccc3)n(CCCCC#N)n2)COc2ccccc21"
observed_result = "> 100 µM"


Tell me CC50 reported for CN1C(=S)[C@@H](NC(=O)c2nc(Cc3ccccc3)n(CC3CCOC3)n2)COc2ccccc21 (stereo partly drawn)
> 100 µM

Report CC50 for CCCCCn1nc(C(=O)N[C@H]2COc3ccccc3N(C)C2=S)nc1Cc1ccccc1
> 100 µM

Item CN1C(=S)[C@@H](NC(=O)c2nc(Cc3ccccc3)n(C3CCNC3)n2)COc2ccccc21 (stereo partly drawn) : provide CC50
> 100 µM

Entry COCCn1nc(C(=O)N[C@H]2COc3ccccc3N(C)C2=S)nc1Cc1ccccc1 needs its CC50 filled in; supply it.
> 100 µM

Give recorded CC50. CC(C)Cn1nc(C(=O)N[C@H]2COc3ccccc3N(C)C2=S)nc1Cc1ccccc1
> 100 µM

Provide measured CC50 value, entry: CN1C(=S)[C@@H](NC(=O)c2nc(Cc3ccccc3)n(CCF)n2)COc2ccccc21
> 100 µM

Specify CC50 for CN1C(=S)[C@@H](NC(=O)c2nc(Cc3ccccc3)n(CCCO)n2)COc2ccccc21 and stop.
> 100 µM

Using the record for CN1C(=S)[C@@H](NC(=O)c2nc(Cc3ccccc3)n(-c3ncccn3)n2)COc2ccccc21 , state its measured CC50.
> 100 µM

Supply recorded CC50 for CN1C(=S)[C@@H](NC(=O)c2nc(Cc3ccccc3)n(CCCCCC#N)n2)COc2ccccc21 here.
> 100 µM

Return CC50 for the following molecule: CN1C(=S)[C@@H](NC(=O)c2nc(Cc3ccccc3)n(C3CCOCC3)n2)COc2ccccc21
> 100 µM

Quickly give me recorded CC50 for CN1C(=S)[C@@H](NC(=O)c2nc(Cc3ccccc3)n(CCCC(F)(F)F)n2)COc2ccccc21
> 100 µM
